The reported numbers originate from ChEMBL document CHEMBL5620353.

Target chain: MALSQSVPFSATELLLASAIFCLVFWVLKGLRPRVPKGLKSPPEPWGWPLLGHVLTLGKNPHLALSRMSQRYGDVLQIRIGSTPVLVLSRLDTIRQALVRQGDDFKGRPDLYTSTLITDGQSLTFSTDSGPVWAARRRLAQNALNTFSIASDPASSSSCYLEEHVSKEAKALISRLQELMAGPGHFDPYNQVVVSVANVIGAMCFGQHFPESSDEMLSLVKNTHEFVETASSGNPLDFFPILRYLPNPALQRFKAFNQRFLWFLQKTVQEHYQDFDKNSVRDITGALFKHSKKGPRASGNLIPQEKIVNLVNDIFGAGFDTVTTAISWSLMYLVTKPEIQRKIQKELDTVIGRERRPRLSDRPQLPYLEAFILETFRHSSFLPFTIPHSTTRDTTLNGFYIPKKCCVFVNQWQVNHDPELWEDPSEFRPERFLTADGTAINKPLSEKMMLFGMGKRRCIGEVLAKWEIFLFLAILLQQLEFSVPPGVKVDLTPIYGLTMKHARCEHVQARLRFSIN
Please respond with reported IC50 for every item in the list.
Answers are plain numbers, in µM.

molsmiles=C[C@@H](OCC#Cc1ccncc1)[C@](O)(Cn1cncn1)c1ccc(F)cc1F endpointunit=µM valueobserved=31.1
molsmiles=C[C@@H](OCC#Cc1ccc(F)cc1F)[C@](O)(Cn1cncn1)c1ccc(F)cc1F endpointunit=µM valueobserved=50.7

Lookup: Fill in: IC50 of C[C@@H](OCC#Cc1ccc(C#N)cc1)[C@](O)(Cn1cncn1)c1ccc(F)cc1F is ___
Found: 42.6
